System: T1, EsCas13d, nuclease-dead (Eubacterium siraeum, UniProt B0MS50, R295A;H300A;R849A;H854A)
T1 sequence: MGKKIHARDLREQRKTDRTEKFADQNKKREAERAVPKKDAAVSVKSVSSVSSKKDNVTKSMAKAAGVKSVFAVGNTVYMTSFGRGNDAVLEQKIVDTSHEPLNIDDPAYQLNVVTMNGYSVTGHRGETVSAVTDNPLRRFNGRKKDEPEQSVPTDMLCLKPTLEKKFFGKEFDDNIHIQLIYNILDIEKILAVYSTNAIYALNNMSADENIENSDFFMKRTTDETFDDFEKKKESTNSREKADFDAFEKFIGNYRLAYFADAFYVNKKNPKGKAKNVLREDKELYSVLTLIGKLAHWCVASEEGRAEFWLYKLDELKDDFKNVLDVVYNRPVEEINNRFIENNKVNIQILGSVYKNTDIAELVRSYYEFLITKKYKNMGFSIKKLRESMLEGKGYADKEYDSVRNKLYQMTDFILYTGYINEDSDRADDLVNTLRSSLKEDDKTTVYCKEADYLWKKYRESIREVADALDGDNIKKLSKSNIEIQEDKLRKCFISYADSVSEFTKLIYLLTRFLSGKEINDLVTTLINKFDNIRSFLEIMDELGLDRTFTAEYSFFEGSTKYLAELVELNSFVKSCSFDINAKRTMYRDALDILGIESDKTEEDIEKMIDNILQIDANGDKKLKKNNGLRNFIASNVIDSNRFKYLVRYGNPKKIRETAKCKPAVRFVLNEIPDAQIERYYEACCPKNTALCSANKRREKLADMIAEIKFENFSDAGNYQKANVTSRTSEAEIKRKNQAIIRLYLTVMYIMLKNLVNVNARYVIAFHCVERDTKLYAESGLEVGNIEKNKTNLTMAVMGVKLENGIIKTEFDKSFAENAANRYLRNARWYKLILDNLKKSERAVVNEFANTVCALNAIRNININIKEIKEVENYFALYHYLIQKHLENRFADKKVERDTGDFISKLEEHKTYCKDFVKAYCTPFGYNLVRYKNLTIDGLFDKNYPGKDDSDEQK
Assay info: crRNA (strand 1, pre-loaded); Mg2+; 40 mM Tris-HCl pH 7.5, 150 mM NaCl, 6 mM MgCl2, 1 mM DTT, 0.1% Tween-20, 0.2 mg/ml BSA; 25 C; 10 min per concentration, then washed
Measurement parameters: tags: His6-TwinStrep-SUMO cleaved; N-terminal SNAP kept (SNAP-Surface 488); label: 3' end held by stalled T7 RNA polymerase
Threshold check on Kd: strictly below 10 nM is yes (1); on or above 10 nM is no (0).

| Binder | Category label |
| --- | --- |
| target 1 MT 5'PFS CUG 3'PFS UUG (mixed) RNA 1: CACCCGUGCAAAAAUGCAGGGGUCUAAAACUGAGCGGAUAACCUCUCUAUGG RNA 2: GGGAAUGGAUCCACAUCUACGAAUUCCUGCCAUAGAGAGGUUAUCCGCUCAUUGAGAUCGGAAGAGCACACGU | yes (1) |
| target 2 MT 5'PFS AUA 3'PFS UUC (mixed) RNA 1: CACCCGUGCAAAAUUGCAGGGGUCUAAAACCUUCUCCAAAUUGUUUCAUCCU RNA 2: GGGAAUGGAUCCACAUCUACGAAUUCAUAAGGAUGAAACAAUUUGGAGAAGUUCAGAUCGGAAGAGCACACGU | no (0) |
| target 1 MT 5'PFS GGA 3'PFS AUA (mixed) RNA 1: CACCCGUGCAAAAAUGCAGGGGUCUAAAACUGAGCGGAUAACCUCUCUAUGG RNA 2: GGGAAUGGAUCCACAUCUACGAAUUCGGACCAUAGAGAGGUUAUCCGCUCAAUAAGAUCGGAAGAGCACACGU | no (0) |
| target 2 MT 5'PFS UAG 3'PFS ACC (mixed) RNA 1: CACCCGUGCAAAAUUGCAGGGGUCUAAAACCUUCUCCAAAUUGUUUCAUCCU RNA 2: GGGAAUGGAUCCACAUCUACGAAUUCUAGAGGAUGAAACAAUUUGGAGAAGACCAGAUCGGAAGAGCACACGU | yes (1) |
| target 1 insA 3' of 11,insU 3' of 1 (mixed) RNA 1: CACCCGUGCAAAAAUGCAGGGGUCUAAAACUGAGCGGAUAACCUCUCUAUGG RNA 2: GGGAAUGGAUCCACAUCUACGAAUUCGUACCAUAGAGAGGUAUAUCCGCUCAUCCGAGAUCGGAAGAGCACACGU | no (0) |
| target 1 insC 3' of 19,insC 3' of 5 (mixed) RNA 1: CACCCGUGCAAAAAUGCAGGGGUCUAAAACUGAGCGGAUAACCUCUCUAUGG RNA 2: GGGAAUGGAUCCACAUCUACGAAUUCGUACCAUCAGAGAGGUUAUCCGCCUCACCGAGAUCGGAAGAGCACACGU | no (0) |
| target 1 U3A,A20C (mixed) RNA 1: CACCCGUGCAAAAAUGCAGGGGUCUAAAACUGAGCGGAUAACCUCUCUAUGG RNA 2: GGGAAUGGAUCCACAUCUACGAAUUCGUACCCUAGAGAGGUUAUCCGCACACCGAGAUCGGAAGAGCACACGU | no (0) |
| target 1 MT 5'PFS GUG 3'PFS UGA (mixed) RNA 1: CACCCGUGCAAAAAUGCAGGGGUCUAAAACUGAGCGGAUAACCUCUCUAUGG RNA 2: GGGAAUGGAUCCACAUCUACGAAUUCGUGCCAUAGAGAGGUUAUCCGCUCAUGAAGAUCGGAAGAGCACACGU | no (0) |
| target 1 C4G,A14G (mixed) RNA 1: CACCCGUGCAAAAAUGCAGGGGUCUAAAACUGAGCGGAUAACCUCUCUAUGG RNA 2: GGGAAUGGAUCCACAUCUACGAAUUCGUACCAUAGAGGGGUUAUCCGGUCACCGAGAUCGGAAGAGCACACGU | no (0) |
| target 2 MT 5'PFS UUA 3'PFS AAC (mixed) RNA 1: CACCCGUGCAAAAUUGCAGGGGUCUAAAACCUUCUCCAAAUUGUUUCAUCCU RNA 2: GGGAAUGGAUCCACAUCUACGAAUUCUUAAGGAUGAAACAAUUUGGAGAAGAACAGAUCGGAAGAGCACACGU | no (0) |
| target 1 C7G,C21U (mixed) RNA 1: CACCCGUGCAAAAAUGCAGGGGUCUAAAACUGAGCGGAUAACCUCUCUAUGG RNA 2: GGGAAUGGAUCCACAUCUACGAAUUCGUACUAUAGAGAGGUUAUGCGCUCACCGAGAUCGGAAGAGCACACGU | yes (1) |
| target 1 insA 3' of 11,insA 3' of 5 (mixed) RNA 1: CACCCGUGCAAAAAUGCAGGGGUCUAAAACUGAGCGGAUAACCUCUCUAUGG RNA 2: GGGAAUGGAUCCACAUCUACGAAUUCGUACCAUAGAGAGGUAUAUCCGACUCACCGAGAUCGGAAGAGCACACGU | yes (1) |
| target 2 MT 5'PFS UAA 3'PFS CAA (mixed) RNA 1: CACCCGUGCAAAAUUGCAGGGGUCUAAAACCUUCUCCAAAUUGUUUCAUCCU RNA 2: GGGAAUGGAUCCACAUCUACGAAUUCUAAAGGAUGAAACAAUUUGGAGAAGCAAAGAUCGGAAGAGCACACGU | yes (1) |
